Collected MIC values appear next to each entry.
- Test system: Streptococcus pneumoniae
- Experiment Description: Antibacterial activity against MLSB-resistant Streptococcus pneumoniae 07P390 harboring ermB gene assessed as reduction in microbial growth
- Format: functional

{"columns": ["Smiles Text", "MIC [µg/mL]"],
 "data": [
  ["CC[C@H]1OC(=O)[C@H](C)[C@@H](O[C@H]2C[C@@](C)(OC)[C@@H](O)[C@H](C)O2)[C@H](C)[C@@H](O[C@@H]2O[C@H](C)C[C@H](N(C)C)[C@H]2O)[C@](C)(O)C[C@@H](C)CN(C)[C@H](C)[C@@H](O)[C@]1(C)O", 256],
  ["CC[C@H]1OC(=O)[C@H](C)[C@@H](OC(=O)Cc2cccnc2)[C@H](C)[C@@H](O[C@@H]2O[C@H](C)C[C@H](N(C)C)[C@H]2O)[C@](C)(OC(=O)CCNCCC#Cc2ccc3c(c2)c(=O)c(C(=O)O)cn3C2CC2)C[C@@H](C)CN(C)[C@H](C)[C@H]2OC(=O)O[C@@]21C", 64],
  ["CC[C@H]1OC(=O)[C@H](C)[C@@H](OC(=O)Cc2ccccn2)[C@H](C)[C@@H](O[C@@H]2O[C@H](C)C[C@H](N(C)C)[C@H]2O)[C@](C)(OC(=O)CCNCCC#Cc2ccc3c(c2)c(=O)c(C(N)=O)cn3CC)C[C@@H](C)CN(C)[C@H](C)[C@@H](O)[C@]1(C)O", 256]
]}
